readoutType: melting point

Input: Return reported melting point. Input compound: `Cn1cc(C2=C(c3cccc(OCCN4CCOCC4)c3)C(=O)NC2=O)c2ccccc21`
Output: 197.7 to 199 °C

Input: Give the value of melting point reported for the following: `Cn1cc(C2=C(c3cccc(NCCCO[Si](C)(C)C(C)(C)C)c3)C(=O)NC2=O)c2ccccc21`
Output: 58 to 65 °C

Input: Please list melting point recorded for the compound Cn1cc(C2=C(c3ccccc3OCC(O)CO)C(=O)NC2=O)c2ccccc21 (centres unmarked)
Output: 245 to 247.1 °C

Input: Given the compound `Cn1cc(C2=C(c3cccc(OC[C@H](O)CO)c3)C(=O)NC2=O)c2ccccc21` , write its reported melting point.
Output: 177.7 to 178 °C

Input: Look up and report measured melting point for this entry: Cl.Cn1cc(C2=C(c3cccc(NCC(O)CO)c3)C(=O)NC2=O)c2ccccc21 (centres unmarked)
Output: 160 to 163.5 °C

----------
testSystem: truncated form of recombinant rabbit GSK-3β enzyme (Oryctolagus cuniculus)
Construct: The construct was cloned in pGEX-3X vector; fused on or other part: GST at the N-terminus (pGEX-3X vector, purified on glutathione sepharose 4B)
Sequence (G1T8E2 1-432): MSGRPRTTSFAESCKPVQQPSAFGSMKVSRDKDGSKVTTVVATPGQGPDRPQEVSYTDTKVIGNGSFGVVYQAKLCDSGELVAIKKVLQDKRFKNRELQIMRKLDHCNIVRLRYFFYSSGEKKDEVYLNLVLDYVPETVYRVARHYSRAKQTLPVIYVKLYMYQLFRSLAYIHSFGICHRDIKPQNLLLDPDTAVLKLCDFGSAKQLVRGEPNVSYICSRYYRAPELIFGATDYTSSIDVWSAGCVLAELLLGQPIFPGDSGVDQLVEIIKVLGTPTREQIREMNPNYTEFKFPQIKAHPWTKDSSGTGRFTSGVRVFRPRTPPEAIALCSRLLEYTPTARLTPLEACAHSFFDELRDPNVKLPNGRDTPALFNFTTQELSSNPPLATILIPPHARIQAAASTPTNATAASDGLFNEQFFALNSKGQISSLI
protocolDescription: Inhibition of Glycogen Synthase Kinase-3β in vitro assay
Type: biochemical
conditionSummary: GSK-3β assay of Biological Example 1
readoutType: IC50 (nM)
Kindly answer with a numeric value in nM, unit omitted.

Input: Identify measured IC50 obtained with truncated form of recombinant rabbit GSK-3β enzyme (Oryctolagus cuniculus) for Nc1nc(NCCNc2ncc(-c3ncc[nH]3)c(-c3ccc(Cl)cc3Cl)n2)ccc1[N+](=O)[O-] [Compound X, reference compound] .
Output: 1.7
